# Target desc: Cytochrome P450 1A2 (Homo sapiens)
# Experiment description: Cytochrome P450 Family 1 Subfamily A Member 2 (CYP1A2) small molecule antagonists: luciferase reporter qHTS assay (AID 1671199); further: potency means the concentration at half of the fitted maximal effect; nearly all actives have a fitted effect of over 50% in size
# Assay context: P450-Glo CYP1A2 enzyme, luciferin luminescence, 1 h; series mostly up to 115 µM
# Text: National Center for Advancing Translational Sciences [NCATS] U.S. Environmental Protection Agency [EPA] National Institutes of Environmental Health Sciences [NIEHS] National Toxicology Program [NTP] U.S. Food and Drug Administration [FDA] Cytochrome P450 (CYP) enzymes are membrane-bound hemeproteins that play a key role in metabolism of drugs and xenobiotics. […] The luciferin products formed are detected with a luciferin detection reagent, and the amount of light produced is proportional to CYP activity. […]
Records with an inconclusive call do not appear. The source made the active and inactive calls. The call rests on the fitted dose curve; in most records, active means well fitted inhibition curve with a large enough effect in the repeat runs; inconclusive means weak or mixed curves; inactive means no such curve, though single readings can be large or run the other way.
Choose one outcome from this list and give only that: True for active, False for inactive

Task: Assay outcome for c1ccc2c(c1)cc1ccc3cccc4ccc2c1c34 : what was it?
Result: True

Task: Assay outcome for COP(=S)(OC)Oc1nc(Cl)c(Cl)cc1Cl : what was it?
Result: True

* * *

# Target desc: Nuclear receptor subfamily 1 group I member 2 (Homo sapiens) (UniProt O75469)
# Sequence (O75469 whole entry, looked up): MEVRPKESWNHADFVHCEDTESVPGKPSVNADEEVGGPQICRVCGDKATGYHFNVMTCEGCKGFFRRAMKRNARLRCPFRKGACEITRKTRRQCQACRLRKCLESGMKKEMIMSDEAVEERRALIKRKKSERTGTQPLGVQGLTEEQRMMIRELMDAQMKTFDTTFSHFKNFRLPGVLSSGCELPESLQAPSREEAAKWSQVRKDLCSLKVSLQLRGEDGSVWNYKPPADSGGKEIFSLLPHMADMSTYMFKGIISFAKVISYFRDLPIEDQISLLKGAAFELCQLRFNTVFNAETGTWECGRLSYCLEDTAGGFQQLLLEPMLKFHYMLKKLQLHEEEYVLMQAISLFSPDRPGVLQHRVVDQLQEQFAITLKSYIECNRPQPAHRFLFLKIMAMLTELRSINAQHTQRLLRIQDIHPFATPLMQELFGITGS
# Experiment description: Human pregnane X receptor (PXR) small molecule agonists, qHTS assay (AID 1346982); further: nearly all actives have a fitted effect of over 35% in size; further: potency means the concentration at half of the fitted maximal effect
# Assay context: PXR-Luc HepG2, CYP3A4 luciferase reporter, 24 h; series mostly up to 92.4 µM
Records with an inconclusive call do not appear. Active and inactive are the calls of the source. Calls come from the whole dose curve; as a rule, active = well fitted activation curve with a large enough effect in the repeat runs; inconclusive = weak or mixed curves; inactive = no such curve, though single readings can be large or run the other way.
Measured property: Potency

1) N#Cc1c2ccccc2cc2ccccc12	27.3 µM (active)
2) O=C(N[C@H]1N=C(c2ccccc2F)c2cccc3c2N(CC3)C1=O)c1cc2ccccc2[nH]1	18.8 µM (active)
3) [F][Sn]([c]1ccccc1)([c]1ccccc1)[c]1ccccc1	0.077 µM (active)
4) S=C=NCCc1ccccc1	54.6 µM (active)

Task: # value lookup — system Nuclear receptor subfamily 1 group I member 2 (Homo sapiens) (UniProt O75469), readout Potency, item C=C(C)C(=O)[O][Sn]([CH2]CCC)([CH2]CCC)[CH2]CCC
Result: 0.193 µM (active)

Task: # value lookup — system Nuclear receptor subfamily 1 group I member 2 (Homo sapiens) (UniProt O75469), readout Potency, item ClC(Cl)C(Cl)(Cl)Cl
Result: inactive

Task: # value lookup — system Nuclear receptor subfamily 1 group I member 2 (Homo sapiens) (UniProt O75469), readout Potency, item O=NN(CCO)CCO
Result: inactive

Task: # value lookup — system Nuclear receptor subfamily 1 group I member 2 (Homo sapiens) (UniProt O75469), readout Potency, item CN1C(=O)[C@@H](NC(=O)c2cc3ccccc3[nH]2)N=C(c2ccccc2)c2ccccc21
Result: inactive

Task: # value lookup — system Nuclear receptor subfamily 1 group I member 2 (Homo sapiens) (UniProt O75469), readout Potency, item CCCCON=O
Result: inactive

Task: # value lookup — system Nuclear receptor subfamily 1 group I member 2 (Homo sapiens) (UniProt O75469), readout Potency, item O=Cc1ccccc1
Result: inactive

Task: # value lookup — system Nuclear receptor subfamily 1 group I member 2 (Homo sapiens) (UniProt O75469), readout Potency, item O=S(=O)(O)F
Result: 53.8 µM (active)

* * *

# Experiment description: qHTS assay to identify small molecule agonists of the estrogen receptor beta (ER-beta) signaling pathway - cell viability counter screen (AID 1259380); further: nearly all actives have a fitted effect of over 30% in size
# Assay context: ER-beta-bla HEK293T viability, CellTiter-Glo luminescence, 16 h; series mostly up to 92.4 µM
Records with an inconclusive call do not appear. Calls of active or inactive are those of the source. Calls follow the shape of the dose curve; as a rule, active = well fitted cell-killing curve with a large enough effect in the repeat runs; inconclusive = weak or mixed curves, or effect the other way; inactive = flat fitted curve, though single readings scatter.
Choose one outcome from this list and give only that: label 1 (active), label 0 (inactive)

Solved entries:
1) CCn1cc[n+](C)c1 (tested in a mixture with another compound)	label 0
2) O=S(=O)(O)F	label 0
3) CCOP(=S)(OCC)Oc1cc(C)nc(N(CC)CC)n1	label 0

Task: Assay outcome for COC(=O)N(OC)c1ccccc1COc1ccn(-c2ccc(Cl)cc2)n1 : what was it?
Result: label 1

Task: Assay outcome for CC(Cc1ccc(OCC(=O)O)cc1)NCC(O)c1csc(C(F)(F)F)n1 (stereo unspecified) : what was it?
Result: label 0

Task: Assay outcome for O=NN(CCO)CCO : what was it?
Result: label 0

Task: Assay outcome for ClC1=C(Cl)[C@]2(Cl)[C@@H]3[C@H]4C[C@H]([C@@H]5O[C@H]45)[C@@H]3[C@@]1(Cl)C2(Cl)Cl : what was it?
Result: label 0

Task: Assay outcome for O=C(CCCCl)c1ccc(F)cc1 : what was it?
Result: label 0

Task: Assay outcome for O=[N+]([O-])c1cccc2cccc([N+](=O)[O-])c12 : what was it?
Result: label 0

Task: Assay outcome for CCCCn1cc[n+](C)c1.[Cl][Fe-]([Cl])([Cl])[Cl] : what was it?
Result: label 0

Task: Assay outcome for COC(=O)c1ccccc1S(=O)(=O)NC(=O)Nc1nc(C)nc(OC)n1 : what was it?
Result: label 0

The reported numbers originate from PubChem BioAssay (Tox21).
